Molecular target: PBP1b (Pseudomonas aeruginosa, UniProt G3XD31)
Sequence (G3XD31 entry or part of it): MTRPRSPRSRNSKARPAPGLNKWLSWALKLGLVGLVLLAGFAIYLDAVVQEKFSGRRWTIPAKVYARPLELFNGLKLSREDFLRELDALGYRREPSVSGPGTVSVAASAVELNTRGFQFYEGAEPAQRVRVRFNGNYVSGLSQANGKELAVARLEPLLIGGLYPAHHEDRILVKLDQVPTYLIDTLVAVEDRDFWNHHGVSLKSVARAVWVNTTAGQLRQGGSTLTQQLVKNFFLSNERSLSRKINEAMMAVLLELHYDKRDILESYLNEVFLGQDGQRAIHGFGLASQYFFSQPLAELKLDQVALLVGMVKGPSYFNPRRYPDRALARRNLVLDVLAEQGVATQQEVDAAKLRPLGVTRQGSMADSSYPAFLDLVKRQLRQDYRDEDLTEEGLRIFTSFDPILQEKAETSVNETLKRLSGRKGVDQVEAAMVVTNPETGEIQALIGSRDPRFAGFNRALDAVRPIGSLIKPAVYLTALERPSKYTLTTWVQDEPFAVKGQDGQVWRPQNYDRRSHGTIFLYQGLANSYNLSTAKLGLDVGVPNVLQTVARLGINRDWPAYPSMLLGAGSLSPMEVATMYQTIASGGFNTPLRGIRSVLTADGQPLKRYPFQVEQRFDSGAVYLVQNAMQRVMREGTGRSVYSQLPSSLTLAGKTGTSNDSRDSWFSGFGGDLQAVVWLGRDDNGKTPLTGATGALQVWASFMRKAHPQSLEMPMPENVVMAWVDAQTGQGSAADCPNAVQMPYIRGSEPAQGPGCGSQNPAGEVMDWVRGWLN
Assay: Membrane PBP binding assay, competition with Bocillin FL
Settings: P. aeruginosa ATCC 27853 membranes
Readout label: IC50 (µM)

[[record]]
molecule = "N[C@@H](C(=O)N[C@@H]1C(=O)N2C(C(=O)O)=C(Cl)CC[C@H]12)c1ccccc1 [LOR, loracarbef, reference compound]"
assay_target = "PBP1b (Pseudomonas aeruginosa, UniProt G3XD31)"
readout_label = "IC50"
data_value = 1.8


###

Target: PBP2 (Klebsiella pneumoniae, UniProt A6T696)
Experiment: Membrane PBP binding assay, competition with Bocillin FL
Design: species or system K. pneumoniae ATCC 13883
Conditions: read-out: IC50 PBP2; K. pneumoniae ATCC 13883 membranes
Readout label: IC50 (µM)

[[record]]
compound = "O=C(CCC(=O)N(CCCCNC(=O)c1cccc(O)c1O)CCCNC(=O)c1cccc(O)c1O)NCCCCCN(O)C(=O)CCCC(=O)NC(C(=O)NC1C(=O)N2C(C(=O)O)=C(Cl)CSC12)c1ccccc1 (stereo not shown) [MCEF]"
readout_label = "IC50"
data_value = 16.8


###

Target: PBP2 (Pseudomonas aeruginosa, UniProt Q9X6V3)
Construct: using bacterial membranes as the source of PBPs; endogenous in cells; host or cells: P. aeruginosa ATCC 27853 membrane preparation
Sequence (Q9X6V3 1-646): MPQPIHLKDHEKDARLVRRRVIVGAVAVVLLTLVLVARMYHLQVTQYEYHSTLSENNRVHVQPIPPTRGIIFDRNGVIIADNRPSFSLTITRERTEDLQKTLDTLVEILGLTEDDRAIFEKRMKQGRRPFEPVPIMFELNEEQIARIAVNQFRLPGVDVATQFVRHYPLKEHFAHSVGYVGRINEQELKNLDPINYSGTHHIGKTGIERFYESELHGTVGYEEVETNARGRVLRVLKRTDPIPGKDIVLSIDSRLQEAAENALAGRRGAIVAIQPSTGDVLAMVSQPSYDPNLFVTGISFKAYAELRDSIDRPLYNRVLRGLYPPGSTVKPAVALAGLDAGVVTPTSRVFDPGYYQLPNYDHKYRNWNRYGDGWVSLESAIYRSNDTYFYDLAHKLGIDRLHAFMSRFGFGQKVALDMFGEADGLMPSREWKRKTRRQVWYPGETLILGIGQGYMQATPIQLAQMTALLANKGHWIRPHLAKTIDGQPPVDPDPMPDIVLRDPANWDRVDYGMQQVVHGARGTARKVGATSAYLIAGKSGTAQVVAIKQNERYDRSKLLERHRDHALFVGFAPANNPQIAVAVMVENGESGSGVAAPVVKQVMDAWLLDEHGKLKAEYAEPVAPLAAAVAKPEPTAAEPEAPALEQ
Test: Membrane PBP binding assay, competition with Bocillin FL
pIC50: −log10 of the molar value.
Readout label: pIC50

[[record]]
molecule = "CC1(C)S[C@@H]2[C@H](NC(=O)[C@H](N)c3ccccc3)C(=O)N2[C@H]1C(=O)O [AMP, ampicillin, reference compound]"
readout_label = "pIC50"
data_value = "< 4.30"


###

Molecular target: PBP5 (Escherichia coli)
Sequence (P0AEB2 30-403): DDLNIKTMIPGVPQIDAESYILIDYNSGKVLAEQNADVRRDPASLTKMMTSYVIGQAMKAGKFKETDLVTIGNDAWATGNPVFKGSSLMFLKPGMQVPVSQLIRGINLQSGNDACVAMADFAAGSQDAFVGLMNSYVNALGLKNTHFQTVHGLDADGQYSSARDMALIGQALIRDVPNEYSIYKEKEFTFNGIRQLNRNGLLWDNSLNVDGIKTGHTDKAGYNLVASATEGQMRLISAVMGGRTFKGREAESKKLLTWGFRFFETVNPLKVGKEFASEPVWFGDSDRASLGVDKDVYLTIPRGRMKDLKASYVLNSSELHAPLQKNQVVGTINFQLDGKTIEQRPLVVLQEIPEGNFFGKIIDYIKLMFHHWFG
pIC50: −log10 of the molar value.
Readout label: pIC50

[[record]]
compound = "N[C@@H](C(=O)N[C@@H]1C(=O)N2C(C(=O)O)=C(Cl)CC[C@H]12)c1ccccc1 [LOR, loracarbef, reference compound]"
data_value = "< 4.30"


###

Biological target: PBP4 (Escherichia coli, UniProt P24228)
Construct: using bacterial membranes as the source of PBPs; endogenous in cells; host or cells: E. coli MC4100 membrane preparation
Experiment: Membrane PBP binding assay, competition with Bocillin FL
Design: species or system E. coli MC4100
Settings: E. coli MC4100 membranes; read-out: IC50 PBP4
pIC50: −log10 of the molar value.
Readout label: pIC50

[[record]]
compound = "CC1(C)SC2C(NC(=O)C(NC(=O)CN(CCCCNC(=O)c3cccc(O)c3O)C(=O)c3cccc(O)c3O)c3ccccc3)C(=O)N2C1C(=O)O (stereo not shown) [BAMP, bis-catechol (azotochelin)-ampicillin]"
readout_label = "pIC50"
result_qualifier = "<"
data_value = 4.30

[[record]]
compound = "N[C@@H](C(=O)N[C@@H]1C(=O)N2C(C(=O)O)=C(Cl)CC[C@H]12)c1ccccc1 [LOR, loracarbef, reference compound]"
readout_label = "pIC50"
result_qualifier = "="
data_value = 4.50

[[record]]
compound = "CC1(C)S[C@@H]2[C@H](NC(=O)[C@H](N)c3ccccc3)C(=O)N2[C@H]1C(=O)O [AMP, ampicillin, reference compound]"
readout_label = "pIC50"
result_qualifier = "="
data_value = 5.08

[[record]]
compound = "O=C(CN(CCCCNC(=O)c1cccc(O)c1O)C(=O)c1cccc(O)c1O)NC(C(=O)NC1C(=O)N2C(C(=O)O)=C(Cl)CCC12)c1ccccc1 (stereo not shown) [BLOR, bis-catechol (azotochelin)-loracarbef]"
readout_label = "pIC50"
result_qualifier = "="
data_value = 5.08


###

Each record here notes measured log10 of IC50.
Molecular target: PBP1a/1b
Test: Membrane PBP binding assay, competition with Bocillin FL
Settings: K. pneumoniae ATCC 13883 membranes
Readout label: log10 of IC50 (log10 of the value in µM)

[[record]]
compound = "N[C@@H](C(=O)N[C@@H]1C(=O)N2C(C(=O)O)=C(Cl)CC[C@H]12)c1ccccc1 [LOR, loracarbef, reference compound]"
data_value = 0.65

[[record]]
compound = "N[C@@H](C(=O)N[C@@H]1C(=O)N2C(C(=O)O)=C(Cl)CS[C@H]12)c1ccccc1 [CEF, cefaclor, reference compound]"
data_value = 0.90

[[record]]
compound = "O=C(CCC(=O)N(CCCCNC(=O)c1cccc(O)c1O)CCCNC(=O)c1cccc(O)c1O)NCCCCCN(O)C(=O)CCCC(=O)NC(C(=O)NC1C(=O)N2C(C(=O)O)=C(Cl)CSC12)c1ccccc1 (stereo not drawn) [MCEF]"
data_value = -0.46

[[record]]
compound = "CC1(C)S[C@@H]2[C@H](NC(=O)[C@H](N)c3ccccc3)C(=O)N2[C@H]1C(=O)O [AMP, ampicillin, reference compound]"
data_value = 0.90

[[record]]
compound = "O=C(CN(CCCCNC(=O)c1cccc(O)c1O)C(=O)c1cccc(O)c1O)NC(C(=O)NC1C(=O)N2C(C(=O)O)=C(Cl)CCC12)c1ccccc1 (stereo not drawn) [BLOR, bis-catechol (azotochelin)-loracarbef]"
data_value = -0.37

[[record]]
compound = "CC1(C)SC2C(NC(=O)C(NC(=O)CN(CCCCNC(=O)c3cccc(O)c3O)C(=O)c3cccc(O)c3O)c3ccccc3)C(=O)N2C1C(=O)O (stereo not drawn) [BAMP, bis-catechol (azotochelin)-ampicillin]"
data_value = 0.63


###

Test system: A. baumannii ATCC 19606
Assay: MIC, broth microdilution (CLSI)
Assay type: cell-based, Acinetobacter baumannii
Conditions: Acinetobacter baumannii, ATCC19606, ID-MHBCA (−), 0 µg/mL supplemental iron; read-out: MIC
Readout label: MIC

[[record]]
compound = "O=C(CN(CCCCNC(=O)c1cccc(O)c1O)C(=O)c1cccc(O)c1O)NC(C(=O)NC1C(=O)N2C(C(=O)O)=C(Cl)CCC12)c1ccccc1 (centres unmarked) [BLOR, bis-catechol (azotochelin)-loracarbef]"
readout_label = "MIC"
data_value = "0.024 µM"

[[record]]
compound = "O=C(CCC(=O)N(CCCCNC(=O)c1cccc(O)c1O)CCCNC(=O)c1cccc(O)c1O)NCCCCCN(O)C(=O)CCCC(=O)NC(C(=O)NC1C(=O)N2C(C(=O)O)=C(Cl)CSC12)c1ccccc1 (centres unmarked) [MCEF]"
readout_label = "MIC"
data_value = "0.2 µM"

[[record]]
compound = "N[C@@H](C(=O)N[C@@H]1C(=O)N2C(C(=O)O)=C(Cl)CS[C@H]12)c1ccccc1 [CEF, cefaclor, reference compound]"
readout_label = "MIC"
data_value = "> 200 µM"

[[record]]
compound = "CC1(C)S[C@@H]2[C@H](NC(=O)[C@H](N)c3ccccc3)C(=O)N2[C@H]1C(=O)O [AMP, ampicillin, reference compound]"
readout_label = "MIC"
data_value = "> 200 µM"

[[record]]
compound = "CC1(C)SC2C(NC(=O)C(NC(=O)CN(CCCCNC(=O)c3cccc(O)c3O)C(=O)c3cccc(O)c3O)c3ccccc3)C(=O)N2C1C(=O)O (centres unmarked) [BAMP, bis-catechol (azotochelin)-ampicillin]"
readout_label = "MIC"
data_value = "0.2 µM"


###

System: P. aeruginosa ATCC 27853
Assay: MIC, broth microdilution (CLSI)
Assay type: cell-based, Pseudomonas aeruginosa
Conditions: Pseudomonas aeruginosa, ATCC27853, ID-MHBCA + 1 µg/mL supplemental iron; read-out: MIC
Method: All bacterial strains (see description and sources Table S1) were stored at −80 °C, and grown on tryptone soya agar (TSA) at 35 °C. […] Minimal inhibitory concentrations (MICs) were performed using a broth microdilution technique according to the Clinical and Laboratory Standards Institute (CLSI) guidelines. MICs were determined in MHBCA and in ID-MHBCA. To check the impact of β-lactamases, MICs in the presence of a β-lactamase inhibitor were also determined. […]
Below, each entry is listed with its recorded MIC.
Readout label: MIC

[[record]]
molecule = "O=C(CCC(=O)N(CCCCNC(=O)c1cccc(O)c1O)CCCNC(=O)c1cccc(O)c1O)NCCCCCN(O)C(=O)CCCC(=O)NC(C(=O)NC1C(=O)N2C(C(=O)O)=C(Cl)CSC12)c1ccccc1 (centres unmarked) [MCEF]"
assay_target = "P. aeruginosa ATCC 27853"
readout_label = "MIC"
data_value = "> 200 µM"

[[record]]
molecule = "N[C@@H](C(=O)N[C@@H]1C(=O)N2C(C(=O)O)=C(Cl)CS[C@H]12)c1ccccc1 [CEF, cefaclor, reference compound]"
assay_target = "P. aeruginosa ATCC 27853"
readout_label = "MIC"
data_value = "> 200 µM"

[[record]]
molecule = "CC1(C)SC2C(NC(=O)C(NC(=O)CN(CCCCNC(=O)c3cccc(O)c3O)C(=O)c3cccc(O)c3O)c3ccccc3)C(=O)N2C1C(=O)O (centres unmarked) [BAMP, bis-catechol (azotochelin)-ampicillin]"
assay_target = "P. aeruginosa ATCC 27853"
readout_label = "MIC"
data_value = "13 µM"

[[record]]
molecule = "CC1(C)S[C@@H]2[C@H](NC(=O)[C@H](N)c3ccccc3)C(=O)N2[C@H]1C(=O)O [AMP, ampicillin, reference compound]"
assay_target = "P. aeruginosa ATCC 27853"
readout_label = "MIC"
data_value = "> 200 µM"

[[record]]
molecule = "O=C(CN(CCCCNC(=O)c1cccc(O)c1O)C(=O)c1cccc(O)c1O)NC(C(=O)NC1C(=O)N2C(C(=O)O)=C(Cl)CCC12)c1ccccc1 (centres unmarked) [BLOR, bis-catechol (azotochelin)-loracarbef]"
assay_target = "P. aeruginosa ATCC 27853"
readout_label = "MIC"
data_value = "> 200 µM"

